- TEST_TARGET: CDK7/Cyclin H/MNAT1 (Homo sapiens)
- Sequence (P50613 whole entry): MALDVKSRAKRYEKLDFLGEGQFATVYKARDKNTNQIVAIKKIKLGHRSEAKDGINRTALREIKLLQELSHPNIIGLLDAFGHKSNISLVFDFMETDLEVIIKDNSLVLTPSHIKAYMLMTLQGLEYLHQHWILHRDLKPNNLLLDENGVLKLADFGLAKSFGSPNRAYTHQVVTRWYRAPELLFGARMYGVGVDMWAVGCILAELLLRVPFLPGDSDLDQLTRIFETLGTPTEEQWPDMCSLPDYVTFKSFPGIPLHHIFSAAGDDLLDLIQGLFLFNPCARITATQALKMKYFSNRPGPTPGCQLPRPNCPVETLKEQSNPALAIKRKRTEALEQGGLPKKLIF
- Sequence (P51946 whole entry partner): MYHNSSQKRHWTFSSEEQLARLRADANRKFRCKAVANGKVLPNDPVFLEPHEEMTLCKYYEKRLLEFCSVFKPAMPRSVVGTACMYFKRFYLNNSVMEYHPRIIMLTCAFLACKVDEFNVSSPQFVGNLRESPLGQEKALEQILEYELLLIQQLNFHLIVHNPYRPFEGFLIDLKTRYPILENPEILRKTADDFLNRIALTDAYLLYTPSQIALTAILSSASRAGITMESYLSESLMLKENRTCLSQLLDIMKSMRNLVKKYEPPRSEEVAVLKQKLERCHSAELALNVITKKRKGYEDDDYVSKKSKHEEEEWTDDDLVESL
- Sequence (P51948 whole entry partner): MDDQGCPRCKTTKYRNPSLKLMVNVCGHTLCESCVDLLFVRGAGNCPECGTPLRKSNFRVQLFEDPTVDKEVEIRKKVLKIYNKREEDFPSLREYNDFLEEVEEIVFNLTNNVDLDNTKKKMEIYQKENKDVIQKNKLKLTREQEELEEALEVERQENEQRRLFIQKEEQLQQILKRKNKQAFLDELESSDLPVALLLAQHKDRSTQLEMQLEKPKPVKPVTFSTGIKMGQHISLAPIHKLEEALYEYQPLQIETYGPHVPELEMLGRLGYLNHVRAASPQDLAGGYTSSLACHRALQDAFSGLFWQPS
- PROTOCOL_DESCRIPTION: Adapta Eu kinase assay
- Type: biochemical
Some compounds, each annotated with its measured IC50.
Numbers only; they are read as nM.

Solved entries:
CN(C)C[C@@H](NC(=O)N1Cc2c(NC(=O)c3ccc(C(=O)NCCCC#Cc4cccc5c4C(=O)N(C4CCC(=O)NC4=O)C5=O)cc3)n[nH]c2C1(C)C)c1ccccc1 (stereo partly shown)	6.9
Cc1ncsc1-c1ccc([C@H](C)NC(=O)[C@@H]2C[C@@H](O)CN2C(=O)[C@@H](NC(=O)CCOCCOCCNC(=O)c2ccc(C(=O)Nc3n[nH]c4c3CN(C(=O)N[C@H](CN(C)C)c3ccccc3)C4(C)C)cc2)C(C)(C)C)cc1	7.6
Cc1ncsc1-c1ccc(CNC(=O)C2CC(O)CN2C(=O)C(NC(=O)C2(F)CC2)C(C)(C)C)c(OCCCCCCCCNC(=O)c2ccc(C(=O)Nc3n[nH]c4c3CN(C(=O)N[C@H](CN(C)C)c3ccccc3)C4(C)C)cc2)c1 (stereo partly shown)	12.1
Cc1ncsc1-c1ccc(CNC(=O)C2CC(O)CN2C(=O)C(NC(=O)C2(F)CC2)C(C)(C)C)c(OCCOCCOCCNC(=O)c2ccc(C(=O)Nc3n[nH]c4c3CN(C(=O)N[C@H](CN(C)C)c3ccccc3)C4(C)C)cc2)c1 (stereo partly shown)	13.4
Cc1ncsc1-c1ccc([C@H](C)NC(=O)[C@@H]2C[C@@H](O)CN2C(=O)[C@@H](NC(=O)CCCCCCCNC(=O)c2ccc(C(=O)Nc3n[nH]c4c3CN(C(=O)N[C@H](CN(C)C)c3ccccc3)C4(C)C)cc2)C(C)(C)C)cc1	7.8

For Cc1ncsc1-c1ccc([C@H](C)NC(=O)[C@@H]2C[C@@H](O)CN2C(=O)[C@@H](NC(=O)CCCCCc2ccc(C(=O)Nc3n[nH]c4c3CN(C(=O)N[C@H](CN(C)C)c3ccccc3)C4(C)C)cc2)C(C)(C)C)cc1 , what is its reported IC50? 20.3

Recorded IC50 for Cc1ncsc1-c1ccc([C@H](C)NC(=O)[C@@H]2C[C@H](O)CN2C(=O)[C@@H](NC(=O)CCCC#Cc2ccc(C(=O)Nc3n[nH]c4c3CN(C(=O)N[C@H](CN(C)C)c3ccccc3)C4(C)C)cc2)C(C)(C)C)cc1 , please? 21.1

* * *

- PROTOCOL_DESCRIPTION: Mouse pharmacokinetic study
- Assay type: in vivo, mice
- CONDITION_INFO: male, CD1, mouse, plasma, ip, 10 mg/kg
PROPERTY: concentration at 6 h (nM)
Hi! Could you send only the number? It should be in nM, unit omitted.

I would be grateful if you could share the reported concentration at 6 h for Cc1ncsc1-c1ccc([C@H](C)NC(=O)[C@@H]2C[C@@H](O)CN2C(=O)[C@@H](NC(=O)CCCC#Cc2ccc(C(=O)Nc3n[nH]c4c3CN(C(=O)N[C@H](CN(C)C)c3ccccc3)C4(C)C)cc2)C(C)(C)C)cc1 . 1490
